# assayed_target: T1, rat NPRA (rat, UniProt P18910 29-1057)
# T1 sequence (looked up): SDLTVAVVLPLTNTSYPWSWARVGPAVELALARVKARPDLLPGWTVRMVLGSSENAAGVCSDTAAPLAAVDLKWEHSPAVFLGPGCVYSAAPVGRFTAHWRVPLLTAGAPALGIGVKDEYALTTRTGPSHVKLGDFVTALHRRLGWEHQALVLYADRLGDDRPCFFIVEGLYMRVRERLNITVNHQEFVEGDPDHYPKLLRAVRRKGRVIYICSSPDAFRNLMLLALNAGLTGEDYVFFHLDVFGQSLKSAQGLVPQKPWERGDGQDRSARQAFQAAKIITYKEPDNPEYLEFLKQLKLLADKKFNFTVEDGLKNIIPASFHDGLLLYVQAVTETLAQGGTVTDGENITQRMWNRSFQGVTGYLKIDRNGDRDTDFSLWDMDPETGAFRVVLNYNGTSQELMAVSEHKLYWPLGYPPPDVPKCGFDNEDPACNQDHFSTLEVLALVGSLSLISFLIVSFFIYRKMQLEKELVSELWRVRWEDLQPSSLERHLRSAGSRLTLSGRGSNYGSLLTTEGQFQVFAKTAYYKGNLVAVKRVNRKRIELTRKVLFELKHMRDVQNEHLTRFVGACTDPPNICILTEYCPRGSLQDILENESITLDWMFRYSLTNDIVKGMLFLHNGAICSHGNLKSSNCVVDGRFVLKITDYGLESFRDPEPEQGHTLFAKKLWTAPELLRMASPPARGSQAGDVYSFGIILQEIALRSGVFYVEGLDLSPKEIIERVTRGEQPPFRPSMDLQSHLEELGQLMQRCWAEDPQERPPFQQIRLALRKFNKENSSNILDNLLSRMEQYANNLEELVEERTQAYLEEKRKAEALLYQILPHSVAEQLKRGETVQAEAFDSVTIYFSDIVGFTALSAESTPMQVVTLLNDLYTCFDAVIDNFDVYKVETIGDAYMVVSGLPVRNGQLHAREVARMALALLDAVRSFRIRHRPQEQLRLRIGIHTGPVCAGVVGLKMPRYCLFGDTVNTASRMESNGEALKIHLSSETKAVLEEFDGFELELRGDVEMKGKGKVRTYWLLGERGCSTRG
# experiment_description: cell-based or functional assay
Numbered stars: 1 amine (or outer) side, 2 acyl side, 3 side chain; on linkers, the order of the positions; unused ones are H or OH. Bridge positions count the residues as written; N and C are the ends. Square brackets hold non-standard residues; d marks the D form. * marks the point of attachment. thioacetal = thioacetal linkage between two cysteines (intrachain bond at the bracketed Cys); C20 diacid = O=C(O)CCCCCCCCCCCCCCCCCCC(=O)*; γGlu = O=C(O)[C@H](CCC(=O)[*:2])N[*:1]; Orn = NCCC[C@H](N)C(=O)O; Dap = NC[C@H](N)C(=O)O
Attribute: cGMP Assay (EC50, pM) w/Casein, rNPRA
// return numeric value only (unit: pM, not printed)

Examples with their reported cGMP Assay (EC50, pM) w/Casein, rNPRA follow.
1) EKPRSSCFGKRIDRIGHYSGLGCPSFRHGSPSSGAPPPS (N-terminus acylated with HOOC-(CH2)18-CO-(γGlu)-; (AEEA)8 after EKEKEKG; thioacetal linkage between the two bracketed Cys; C-terminal amide) [HOOC-(CH2)18-CO-(γGlu)-EKEKEKG-(AEEA)8-EKPRSS[CFGKRIDRIGHYSGLGC]PSFRHGSPSSGAPPPS-NH2] | 3990
2) SXRRSSCFGKRIDRIGHYSGLGCPSFRHGSPSSGAPPPS (N-terminus acylated with HOOC-(CH2)18-CO-(γGlu)-; (AEEA)6 after EKEKEKG; 4Pal; thioacetal linkage between the two bracketed Cys; C-terminal amide) [HOOC-(CH2)18-CO-(γGlu)-EKEKEKG-(AEEA)6-S-4Pal-RRSS[CFGKRIDRIGHYSGLGC]PSFRHGSPSSGAPPPS-NH2] | 6360
3) {C20 diacid-γGlu}-EKEKEKGEKPRSSCFGKRIDRIG[Orn]YSGLGCPSFRHGSPSSGAPPPS-NH2 (bridge 14-30 via thioacetal) [HOOC-(CH2)18-CO-(γGlu)-EKEKEKGEKPRSS[CFGKRIDRIG-Orn-YSGLGC]PSFRHGSPSSGAPPPS-NH2] | 186000
4) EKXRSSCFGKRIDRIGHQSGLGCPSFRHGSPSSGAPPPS (N-terminus acylated with HOOC-(CH2)18-CO-(γGlu)-; (AEEA)6 after EKEKEKG; βAla; thioacetal linkage between the two bracketed Cys; C-terminal amide) [HOOC-(CH2)18-CO-(γGlu)-EKEKEKG-(AEEA)6-EK-βAla-RSS[CFGKRIDRIGHQSGLGC]PSFRHGSPSSGAPPPS-NH2] | 17900

Next binder, please.
Query: Identify cGMP Assay (EC50, pM) w/Casein, rNPRA associated with the binder {C20 diacid-γGlu}-EKEKEKGEKPRSSCFGG[Dap]IDRIGHYSGLGCPSFRHGSPSSGAPPPS-NH2 (bridge 14-30 via thioacetal) [HOOC-(CH2)18-CO-(γGlu)-EKEKEKGEKPRSS[CFGG-Dap-IDRIGHYSGLGC]PSFRHGSPSSGAPPPS-NH2]
Reply: 71700
